- system_under_test: T1, Len(1-22) monomer peptide (Homo sapiens (Human), UniProt P06312 21-42)
- T1 construct: Analyte in SPR; on beads in the pulldown assay; also called Vκ4(LEN(1-22) beads)
- T1 peptide: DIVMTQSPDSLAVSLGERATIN
- assay_explanation: SPR, antibody as ligand, peptide as analyte

{"binder": "VH9-D54S + VL4 (antibody, V domains shown, Humanized 11-1F4 variant) VH: QVQLQESGPGLVKPSETLSLTCTVSGFSLSSYGVSWIRQPPGKGLEWLGVIWGSGSTNYHPNLMSRVTISVDTSKSQVLFKLSSVTAADTAVYYCATLDYWGQGTSVTVSS VL: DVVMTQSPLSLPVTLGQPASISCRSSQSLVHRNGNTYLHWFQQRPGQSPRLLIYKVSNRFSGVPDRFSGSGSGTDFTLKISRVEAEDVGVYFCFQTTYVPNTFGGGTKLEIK", "koff": "0.000139 s⁻¹"}
{"binder": "VH9 + VL4-G34A (antibody, V domains shown, Humanized 11-1F4 variant) VH: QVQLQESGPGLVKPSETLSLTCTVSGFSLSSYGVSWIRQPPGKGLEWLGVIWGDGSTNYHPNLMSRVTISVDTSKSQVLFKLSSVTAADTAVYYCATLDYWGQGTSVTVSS VL: DVVMTQSPLSLPVTLGQPASISCRSSQSLVHRNANTYLHWFQQRPGQSPRLLIYKVSNRFSGVPDRFSGSGSGTDFTLKISRVEAEDVGVYFCFQTTYVPNTFGGGTKLEIK", "koff": "0.00181 s⁻¹"}
{"binder": "VH9 + VL4-N33A (antibody, V domains shown, Humanized 11-1F4 variant) VH: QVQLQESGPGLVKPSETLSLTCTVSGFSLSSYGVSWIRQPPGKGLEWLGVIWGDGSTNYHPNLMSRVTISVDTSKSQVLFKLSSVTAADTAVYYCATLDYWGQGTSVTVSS VL: DVVMTQSPLSLPVTLGQPASISCRSSQSLVHRAGNTYLHWFQQRPGQSPRLLIYKVSNRFSGVPDRFSGSGSGTDFTLKISRVEAEDVGVYFCFQTTYVPNTFGGGTKLEIK", "koff": "0.001 s⁻¹"}
